Parameter pIC50: see the listing below.
- Tested on: MCF7
- ASSAY_OVERVIEW: Cytotoxicity against human MCF7 cells assessed as reduction in cell viability by MTT assay
- Type: functional, cell-based
pIC50: −log10 of the molar value.

compound_structure_string=O=C(O)c1cn(C2CC2)c2cc(N3CCN(C/C(=N/O)c4ccc(Cl)s4)CC3)c(F)cc2c1=O reported="≥ 4.70"

Quick check: pIC50 on MCF7, item `CCn1cc(C(=O)O)c(=O)c2cc(F)c(N3CCNCC3)cc21` ?
3.62 to 3.86

What reported pIC50 corresponds to `CO/N=C(/CN1CCN(c2cc3c(cc2F)c(=O)c(C(=O)O)cn3C2CC2)CC1)c1ccc(Cl)s1` on MCF7?
≥ 4.70

---

- ASSAY_OVERVIEW: Cytotoxicity against human MGC832 cells assessed as reduction in cell viability after 48 hrs by MTT assay
- Format: functional, cell-based
MEASURED_METRIC: pIC50
// field semantics: pIC50 = negative decimal log of concentration (mol/L)

molecule="O=C(O)c1c(-c2ccc[nH]2)[nH]c2ccccc2c1=O [PENICINOLINE]" reported=7.04

Entry under review: `COC(=O)c1c(-c2ccc[nH]2)[nH]c2ccccc2c1=O` . Reported pIC50?
7.89

---

- Tested on: HUVEC
- ASSAY_OVERVIEW: Cytotoxicity against human HUVEC cells assessed as reduction in cell viability by MTT assay
- Assay type: cell-based
# IC50 annotations

compound_structure_string=COc1ccc2cc3[n+](cc2c1OCc1cn(Cc2cc(=O)[nH]c4ccccc24)nn1)-c1cc2c(cc1CC3)OCO2 measured_metric=IC50 reported="75.5 to 181 µM"

Now for the compound whose IC50 we want.
Which IC50 is reported for this compound? `COc1ccc2cc3[n+](cc2c1OC)CCc1cc2c(cc1-3)OCO2`
18.3 to 65.6 µM

---

Entries and their IC50
- System: HL-60
- ASSAY_OVERVIEW: Anticancer activity against human HL60 cells by MTT assay
- Format: functional, cell-based

Study these solved cases before continuing.
compound_structure_string=CCOC(=O)c1cn(Cc2cn(-c3ccc(Cl)cc3)nn2)c2ccc(F)cc2c1=O reported="13.1 to 70.2 µM"
compound_structure_string=CCOC(=O)c1cn(Cc2cn(-c3ccc(Cl)cc3)nn2)c2ccc(Cl)cc2c1=O reported="13.1 to 88.4 µM"
compound_structure_string=CCOC(=O)c1cn(Cc2cn(-c3ccc(C)cc3)nn2)c2ccc(Cl)cc2c1=O reported="13.1 to 88.4 µM"
compound_structure_string=CCOC(=O)c1cn(Cc2cn(-c3ccc(Cl)cc3)nn2)c2ccc(C)cc2c1=O reported="13.1 to 88.4 µM"
compound_structure_string=CCOC(=O)c1cn(Cc2cn(-c3ccc(F)cc3)nn2)c2ccc(Cl)cc2c1=O reported="13.6 to 66 µM"
compound_structure_string=CCOC(=O)c1cn(Cc2cn(-c3ccc(C)cc3)nn2)c2ccc(F)cc2c1=O reported="13.1 to 88.4 µM"

We next turn to a different compound, shown below.
Suppose we examine the compound `CCOC(=O)c1cn(Cc2cn(-c3ccc([N+](=O)[O-])cc3)nn2)c2ccc(Cl)cc2c1=O` ; what IC50 value has been reported?
13.1 to 88.4 µM

---

- Tested on: Hep 3B2
- ASSAY_OVERVIEW: Cytotoxicity against human Hep3B cells assessed as reduction in cell viability by MTT assay
- Type: functional, cell-based
pIC50: −log10 of the molar value.
Below, each entry is listed alongside its reported pIC50.

compound_structure_string=CCn1cc(-c2nc(SCc3nnc(-c4ccc(Cl)cc4)o3)n(CN(C)C)n2)c(=O)c2cc(F)c(N3CCN(C)CC3)cc21 measured_metric=pIC50 reported="4.61 to 5.82"
compound_structure_string=CCn1cc(-c2nnc(SCc3nnc(-c4ccc(Cl)cc4)o3)[nH]2)c(=O)c2cc(F)c(N3CCN(C)CC3)cc21 measured_metric=pIC50 reported="4.45 to 5.42"

Can you look up pIC50 on Hep 3B2 for `CN1CCN(c2cc3c(cc2F)c(=O)c(-c2nc4scc(-c5ccc(Cl)cc5)n4n2)cn3C2CC2)CC1` ?
4.25 to 5.44

What value of pIC50 on Hep 3B2 does `CCn1cc(-c2nc3scc(-c4ccccc4)n3n2)c(=O)c2cc(F)c(N3CCN(C)CC3)cc21` have?
4.25 to 5.44

---

This section presents molecules with their documented IC50 values.
- Tested on: HT-29
- ASSAY_OVERVIEW: Cytotoxicity against human HT-29 cells assessed as reduction in cell viability
- Assay type: functional, cell-based

Take a look at these entries with their results.
molecule="Cc1ccccc1NC1CCN(C2C(F)=Cc3c4n(cc(C(=O)O)c3=O)-c3ccccc3OC42)C1 (stereo not given)" reported="0.011 to 0.59 µg/mL"
molecule="O=C(O)c1cn2c3c(c1=O)C=C(F)C(N1CCC(Nc4ccccc4)C1)C3Oc1ccccc1-2 (stereo not given)" reported="0.011 to 0.59 µg/mL"
molecule="NC1CCN(C2C(F)=Cc3c4n(cc(C(=O)O)c3=O)-c3ccccc3OC42)C1 (stereo not given)" reported="0.011 to 0.59 µg/mL"
molecule="COc1ccc(NC2CCN(C3C(F)=Cc4c5n(cc(C(=O)O)c4=O)-c4ccccc4OC53)C2)cc1 (stereo not given)" reported="0.011 to 0.59 µg/mL"

// next entry
Need IC50, item CCC[C@H](N)C(=O)NC1CCN(C2C(F)=Cc3c4n(cc(C(=O)O)c3=O)-c3ccccc3OC42)C1 (stereo not given in full)
0.01 to 1 µg/mL

---

- System: HepG2
- ASSAY_OVERVIEW: Cytotoxicity against human HepG2 cells assessed as reduction in cell viability
- Format: functional, cell-based
pIC50: −log10 of the molar value.
Documented pIC50 across a set of molecules

These recorded examples may help you get a feel for the data.
compound_structure_string=C[C@H]1COc2c(N3CCN(C)CC3)c(F)cc3c(=O)c(-c4nnc(NC(=O)CCCC(=O)Nc5ccccc5N)s4)cn1c23 target_under_test=HepG2 measured_metric=pIC50 reported="6.69 to 7.34"
compound_structure_string=C[C@H]1COc2c(N3CCN(C)CC3)c(F)cc3c(=O)c(-c4nnc(NC(=O)CCCCC(=O)O)s4)cn1c23 target_under_test=HepG2 measured_metric=pIC50 reported="4.84 to 5.96"
compound_structure_string=C[C@H]1COc2c(N3CCN(C)CC3)c(F)cc3c(=O)c(-c4nnc(NC(=O)CCCCCCCC(=O)NO)s4)cn1c23 target_under_test=HepG2 measured_metric=pIC50 reported="6.90 to 7.72"

Please turn your attention to the following entry.
So what's the measured pIC50 for this one? `C[C@H]1COc2c(N3CCN(C)CC3)c(F)cc3c(=O)c(-c4nnc(NC(=O)CCCCCCCCC(=O)O)s4)cn1c23`
4.84 to 5.96

---

- Test system: CAPAN-1
- ASSAY_OVERVIEW: Cytotoxicity against human Capan1 cells assessed as reduction in cell viability
- Type: functional, cell-based
pIC50: −log10 of the molar value.
MEASURED_METRIC: pIC50

compound_structure_string=CN1CCN(c2cc3c(cc2F)c(=O)c(-c2nc4s/c(=C\c5ccc(Cl)cc5)c(=O)n4n2)cn3C2CC2)CC1 measured_metric=pIC50 reported="< 5.00"
compound_structure_string=COc1ccc(/C=c2\sc3nc(-c4cn(C5CC5)c5cc(N6CCN(C)CC6)c(F)cc5c4=O)nn3c2=O)cc1 measured_metric=pIC50 reported="< 5.00"

Dear colleague, I am looking for the recorded pIC50 of the following molecule: `CN1CCN(c2cc3c(cc2F)c(=O)c(-c2nc4s/c(=C\c5cccc(C(=O)O)c5)c(=O)n4n2)cn3C2CC2)CC1`
5.08 to 6.52

Query (molecule): `COc1ccccc1/C=c1\sc2nc(-c3cn(C4CC4)c4cc(N5CCN(C)CC5)c(F)cc4c3=O)nn2c1=O` ; field requested: pIC50
< 5.00

---

The molecules listed here are annotated with their IC50.
- Tested on: HT-29
- ASSAY_OVERVIEW: Cytotoxicity against human HT-29 cells assessed as reduction in cell viability
- Assay type: functional, cell-based

Some entries whose results are on file:
molecule="Cc1cccc(C)c1NC1CCN(C2C(F)=Cc3c4n(cc(C(=O)O)c3=O)-c3ccccc3OC42)C1 (stereo not drawn)" reported="0.011 to 0.59 µg/mL"
molecule="Cc1ccc(NC2CCN(C3C(F)=Cc4c5n(cc(C(=O)O)c4=O)-c4ccccc4OC53)C2)cc1 (stereo not drawn)" reported="0.011 to 0.59 µg/mL"

Report IC50 for CC(C)(C)c1cccc(NC2CCN(C3C(F)=Cc4c5n(cc(C(=O)O)c4=O)-c4ccccc4OC53)C2)c1 (stereo not drawn) tested on HT-29.
0.011 to 0.59 µg/mL
